Origin of values: PubChem BioAssay (NCI)

Reported TGI is given for each of the following compounds.
Tested on: PC-3 prostate
Assay: NCI tumour cell line growth inhibition, 48 h

CC1=CC(C)C(O)C(C)/C=C/C(O)C/C=C(/C)C(=O)CC(O)C(C)\C=C/C=C/C=C\C(=O)NC2=C(O)c3cc(C)c(O)c(c3C(=O)C2=O)C1=O (configuration not stated) :: > 100 µM

Given `O=C(N/N=C/c1cc2ccccc2c2ccccc12)c1cc(O)c(O)c(O)c1` , respond with its TGI.
15.6 µM

====

Tested on: HCT-15 colon
Assay: NCI tumour cell line growth inhibition, 48 h
Reported TGI is given for each of the following molecules.

Consider the worked cases shown below.
CC(=O)Oc1ccc(-c2cc3ccccc3oc2=O)cc1OC(C)=O :: > 100 µM
CCCCNc1nc(SC)nc2nc[nH]c12 :: > 100 µM
NC(N)=NC(N)=NCCc1ccccc1 :: > 100 µM
CCOc1ccc(N=Cc2cc(OC)c(OC)c(OC)c2)cc1 :: > 100 µM
COc1cccc(/C=N/n2c(-c3ccccc3)n[nH]c2=O)c1 :: > 100 µM

Continue with the next molecule.
GET TGI where system = HCT-15 colon and item = `Cc1ccccc1NC(=O)C(=O)Cc1nc2ccccc2s1`
> 100 µM

====

Reported TGI is given for each of the following molecules.
Tested on: SNB-19 CNS
Assay: NCI tumour cell line growth inhibition, 48 h

Consider the worked cases shown below.
CC(C)(C)OC(=O)C1/C(=C/CO)CN1C(=O)OC(C)(C)C (configuration not stated) :: > 100 µM
O=C1c2cccc3c(N4CCN(c5ccc6c7c(cccc57)C(=O)N(CCN5CCNCC5)C6=O)CC4)ccc(c23)C(=O)N1CCN1CCNCC1 :: 61.6 µM

Given NC1=C(c2nc(-c3cc4ccccc4oc3=O)cs2)C(c2ccco2)c2c(c3ccccc3oc2=O)O1 (configuration not stated) , respond with its TGI.
> 150 µg/mL

Given `O=[N+]([O-])c1ccc(N(CCO)CCO)c2c1no[n+]2[O-]` , respond with its TGI.
5.9 µM

Given `COC(=O)c1ccccc1CC1Cc2cc3c(cc2C1)CCC3` , respond with its TGI.
> 100 µM

Given `O=C(O)/C(=C\c1ccccc1)Cc1ccccc1` , respond with its TGI.
> 100 µM

Given Cc1ccc(C2SC(N)=Nc3c2c(C)nn3C(=O)c2ccncc2)cc1 (configuration not stated) , respond with its TGI.
> 10 µM

Given `COc1ccc2cc(C(=O)/C=C/c3ccc(OC)c(OC)c3)ccc2c1` , respond with its TGI.
80 µM

====

Tested on: UO-31 renal
Experiment: NCI tumour cell line growth inhibition, 48 h
measurement.kind: TGI

Consider the worked cases shown below.
CC(C)(C)OC(=O)C(C1NC(C(=O)O)C(C)(C)S1)N1C(=O)c2ccccc2C1=O (stereo not given) :: > 100 µM
Cc1c(-c2ccccc2)n(C)c2cn[nH]c(=O)c12 :: > 100 µM

Given `COc1cccc(/C=N/n2c(-c3ccccc3)n[nH]c2=O)c1` , respond with its TGI.
> 100 µM

Given `O=C(c1nsc(Cl)c1Cl)N1CCCCC1` , respond with its TGI.
> 100 µM

Given `COc1ccc(OC)c(-c2nc3sccn3c2/C=C2/C(=O)Nc3ccccc32)c1` , respond with its TGI.
> 41 µM

Given `CCOc1ccc(N=Cc2cc(OC)c(OC)c(OC)c2)cc1` , respond with its TGI.
> 100 µM

Given `CC1=COC2=C(C)C(=O)C(=O)c3c(C)ccc1c32` , respond with its TGI.
40.6 µM

Given Fc1cccc(F)c1C1SCc2nc3ccccc3n21 (stereo not given) , respond with its TGI.
> 100 µM
